The reported numbers originate from ChEMBL document CHEMBL3745703.

# target_or_system: Voltage-gated inwardly rectifying potassium channel KCNH2 (Homo sapiens, UniProt Q12809)
# Sequence (Q12809 whole entry): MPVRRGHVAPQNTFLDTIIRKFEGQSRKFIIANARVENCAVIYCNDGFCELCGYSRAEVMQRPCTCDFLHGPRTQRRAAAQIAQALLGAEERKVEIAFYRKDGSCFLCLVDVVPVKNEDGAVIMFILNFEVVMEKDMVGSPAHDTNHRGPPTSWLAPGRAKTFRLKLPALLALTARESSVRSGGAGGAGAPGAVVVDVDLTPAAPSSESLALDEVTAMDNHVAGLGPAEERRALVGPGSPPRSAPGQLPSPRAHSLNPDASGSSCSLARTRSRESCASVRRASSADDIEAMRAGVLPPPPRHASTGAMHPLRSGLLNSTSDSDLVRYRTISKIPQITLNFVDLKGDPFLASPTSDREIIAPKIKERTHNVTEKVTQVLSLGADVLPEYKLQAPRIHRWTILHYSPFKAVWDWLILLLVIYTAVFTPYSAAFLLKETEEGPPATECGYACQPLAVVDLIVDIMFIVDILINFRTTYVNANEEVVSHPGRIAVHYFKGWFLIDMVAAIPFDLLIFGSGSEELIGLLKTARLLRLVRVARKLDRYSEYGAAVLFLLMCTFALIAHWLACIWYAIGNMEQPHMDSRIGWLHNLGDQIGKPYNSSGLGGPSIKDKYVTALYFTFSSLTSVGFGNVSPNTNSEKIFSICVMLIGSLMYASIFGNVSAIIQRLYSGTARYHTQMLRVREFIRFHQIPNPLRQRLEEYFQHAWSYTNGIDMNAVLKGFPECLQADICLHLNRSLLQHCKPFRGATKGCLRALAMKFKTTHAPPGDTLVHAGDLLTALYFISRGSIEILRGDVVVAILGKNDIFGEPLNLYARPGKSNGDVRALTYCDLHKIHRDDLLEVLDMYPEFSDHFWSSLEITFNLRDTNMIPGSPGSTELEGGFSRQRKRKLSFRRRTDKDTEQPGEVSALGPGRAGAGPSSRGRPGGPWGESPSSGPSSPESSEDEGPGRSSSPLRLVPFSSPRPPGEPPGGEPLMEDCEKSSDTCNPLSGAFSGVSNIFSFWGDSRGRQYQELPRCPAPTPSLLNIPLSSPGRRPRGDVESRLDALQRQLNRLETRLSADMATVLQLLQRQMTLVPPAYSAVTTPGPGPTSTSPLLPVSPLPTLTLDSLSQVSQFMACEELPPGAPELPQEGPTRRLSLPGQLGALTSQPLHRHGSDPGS
outcome_measure: IC50

query: What value of IC50 has been recorded for this entry: C[C@H]1Cn2c(nnc2-c2cnccn2)C(=O)N1Cc1cccc(C(F)(F)F)c1Cl
result: > 10 µM

---

# method_summary: Plasma protein binding in human at 1 uM
# Format: ADME, cell-free
# settings: read-out: PPB (converted)
outcome_measure: fraction unbound at 1 µM
Give bare numbers.

Recorded results for 3 molecules are shown here.
C[C@H]1Cn2c(nnc2-c2ncccn2)C(=O)N1Cc1cccc(C(F)(F)F)c1Cl :: 0.21
C[C@H]1Cn2c(nnc2-c2cccnc2)C(=O)N1Cc1cccc(C(F)(F)F)c1Cl :: 0.22
C[C@H]1Cn2c(nnc2-c2cnccn2)C(=O)N1Cc1cccc(C(F)(F)F)c1Cl :: 0.13

Pending molecule:
query: What value of fraction unbound at 1 µM has been recorded for this entry: C[C@H]1Cn2c(nnc2-c2cc[nH]n2)C(=O)N1Cc1cccc(C(F)(F)F)c1Cl
result: 0.08
